Molecular target: antigen on NCI-H187 classic small cell lung carcinoma cells (ATCC Number: CRL-5804) recognised by PTA-2358
Experiment: competition flow cytometry on NCI-H187 cells against mouse PTA-2358; NS0-derived
Listed next: entries and their corresponding Relative IC50 (fold of chimeric PTA-2358).
Lab note: jot down the number only; don't add units.

These solved cases illustrate the format of a correct answer.
Q) Report measured Relative IC50 (fold of chimeric PTA-2358); entry is PTA-2358 VH4/VK1 IgG1 antibody (antibody, V domains shown) VH: EVQLVQSGAEVKKPGASVKLSCTASGFNIKDYYMHWVRQAPGQGLEWIGWIDPGNGDTECAPKFQGRATLTADTSISTAYLELSRLRSDDTAVYYCNAPYYSGSSHFDYWGQGTTVTVSS VL: DIVLTQSPDSLAVSLGERATINCRASKSVSASGYSFLHWYQQKPGQPPKLLIYLASNLESGVPDRFSGSGSGTDFTLTISSLQEEDVATYYCQHSRELRTFGQGTKLEIK
A) 2.65

Q) Report measured Relative IC50 (fold of chimeric PTA-2358); entry is PTA-2358 VH5/VK1 IgG1 antibody (antibody, V domains shown) VH: EVQLVQSGAEVKKPGASVKVSCTASGFNIKDYYMHWVRQAPGQGLEWIGWIDPGNGDTECAPKFQGRATITADTSISTAYMELSRLRSDDTAVYYCNAPYYSGSSHFDYWGQGTTVTVSS VL: DIVLTQSPDSLAVSLGERATINCRASKSVSASGYSFLHWYQQKPGQPPKLLIYLASNLESGVPDRFSGSGSGTDFTLTISSLQEEDVATYYCQHSRELRTFGQGTKLEIK
A) 1.65

Proceeding to the next binder to report its Relative IC50 (fold of chimeric PTA-2358).
Q) Report measured Relative IC50 (fold of chimeric PTA-2358); entry is PTA-2358 VH1/VK1 IgG1 antibody (antibody, V domains shown) VH: EVQLVQSGAELKKPGASVKLSCTASGFNIKDYYMHWVKQAPGQGLEWIGWIDPGNGDTECAPKFQGRATLTADTSINTAYLELSRLRSDDTAVYYCNAPYYSGSSHFDYWGQGTTVTVSS VL: DIVLTQSPDSLAVSLGERATINCRASKSVSASGYSFLHWYQQKPGQPPKLLIYLASNLESGVPDRFSGSGSGTDFTLTISSLQEEDVATYYCQHSRELRTFGQGTKLEIK
A) 1.11

Data credit: patent US20210371516A1
